- experimental system: recombinant human mPGES-1 (Homo sapiens, UniProt O14684)
- Construct: made in house; host or cells: Rosetta E. coli (membrane/microsome fraction)
- Sequence (O14684 whole entry): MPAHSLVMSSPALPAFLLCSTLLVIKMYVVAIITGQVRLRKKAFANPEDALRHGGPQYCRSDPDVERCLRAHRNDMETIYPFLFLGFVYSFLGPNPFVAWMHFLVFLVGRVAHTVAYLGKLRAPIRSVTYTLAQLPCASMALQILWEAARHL
- procedure summary: Assay A: mPGES-1 enzyme assay (HTRF detection of PGE2)
- Assay type: biochemical
- reported conditions: biological assay A; microsomes from E. coli expressing recombinant human mPGES-1; read-out: mPGES-1 inhibitory effect IC50
value kind: log10(IC50) (log10 of the value in nM)
On a log10 scale: recorded IC50, unit nM.

Answered cases to consult:
>>> df
                                   compound   value_kind  reported_result
0  Cn1c(Nc2cc(CNC(=O)C(C)(F)F)ccc2C(F)(F)F)nc2cc(Cl)c(N3CCC(C(F)(F)F)CC3)cc21 [Example 106]  log10(IC50)             0.76
1  Cn1c(Nc2cc(CN[S+]([O-])C(C)(C)C)ccc2C(F)(F)F)nc2cc(Cl)c(N3CCC(C(F)(F)F)CC3)cc21 (stereo not shown) [Example 109]  log10(IC50)             0.72
2  Cn1c(Nc2cc(CNC(=O)C(C)(F)F)ccc2Cl)nc2cc(Cl)c(N3CCC(C(F)(F)F)CC3)cc21 [Example 94]  log10(IC50)             0.54
3  Cn1c(Nc2cc(CNC(=O)C(N)C(F)(F)F)ccc2Cl)nc2cc(Cl)c(N3CCCC(C(F)(F)F)C3)cc21 (stereo not shown) [Example 65]  log10(IC50)             1.18
4  CC1(C(=O)NCc2ccc(Cl)c(Nc3nc4cc(N5CCCC5)ccc4[nH]3)c2)CCCC1 [Example 28]  log10(IC50)             1.38

For every record below, what is its log10(IC50)?
1. Cn1c(Nc2cc(CNC(=O)C(C)(N)C(F)(F)F)ccc2Cl)nc2cc(Cl)c(N3CCCC(C(F)(F)F)C3)cc21 (stereo not shown) [Example 1]
2. Cn1c(Nc2cc(CNC(=O)c3c(Cl)cccc3Cl)ccc2Cl)nc2cc(Cl)c(N3CCCC(C(F)(F)F)C3)cc21 (stereo not shown) [Example 68]
3. Cn1c(Nc2cc(CNC(=O)C3(C(F)(F)F)CC3)ccc2Cl)nc2cc(Cl)c(N3CCCC(C(F)(F)F)C3)cc21 (stereo not shown) [Example 124]
4. O=C(NCc1ccc(Cl)c(Nc2nc3cc(Cl)c(N4CCOCC4)cc3[nH]2)c1)C1(C(F)(F)F)CC1 [Example 128]
5. Cn1c(Nc2cc(CNC(=O)C3(C(F)(F)F)CC3)ccc2F)nc2cc(C#N)c(N3CCC(C(F)(F)F)CC3)cc21 [Example 113]
6. Cn1c(Nc2cc(CNC(=O)C3(C(F)(F)F)CC3)ccc2C(F)(F)F)nc2cc(Cl)c(N3CCC(C(F)(F)F)CC3)cc21 [Example 101]
7. Cn1c(Nc2cc(CNC(=O)C3(C(F)(F)F)CC3)ccc2Cl)nc2cc(Cl)c(N3CCOCC3)cc21 [Example 10]
8. Cn1c(Nc2cc(CNC(=O)C3(C(F)(F)F)CC3)ccc2Cl)nc2cc(Cl)c(N3CCC(F)(F)CC3)cc21 [Example 79]

*A*
0.40
0.60
0.41
2.24
1.04
0.45
1.49
0.38
